Assay info: Uptake of colonically absorbable forms of levodopa after intracolonic administration in rats
Assay type: in vivo
Reported conditions: whole blood, other: intracolonic (directly into the colon via cannula), rat, intraperitoneal carbidopa
Measure name: bioavailability (%)
Dear colleague, please return just the value in %, with no unit written.

Look at this compound and give its reported bioavailability. `N[C@@H](Cc1ccc(O)c(O)c1)C(=O)O` 3

The measurements presented in this section are drawn from patent US20080070984A1.
